- Target under test: Solute carrier family 2, facilitated glucose transporter member 1 (Homo sapiens)
- Procedure details: ST_JUDE_LEISH: Cytotoxicity at 2uM final concentration against transgenic Leishmania Mexicana promastigotes LmGLUT1 that are glucose transport deficient and complemented with the human glucose transporter GLUT1. Activity is measured by DNA content using SYBR green in vitro
- Format: functional
Measurement kind: inhibition
Number first, unit second: that is the form wanted.

Given `CCN(CC)CCN(Cc1ccc(-c2ccc(C(F)(F)F)cc2)cc1)C(=O)Cn1c(CCc2cccc(C#N)c2)nc(=O)c2ccccc21` , state its recorded inhibition. 2.68%

Consider next the compound CN1CCC(Oc2ccc(Nc3nccc(NCC(O)c4ccccc4)n3)cc2Cl)CC1 (centres undefined) in the same way. -2.84%

Try this compound too: `O=C(N/N=C/c1nc2ccccc2[nH]1)c1cccc([N+](=O)[O-])c1` 2.46%

Now the compound `NC(=O)c1ccccc1OCC(=O)Nc1cccc(-c2ccc(-c3nc4cc(C(F)(F)F)ccc4[nH]3)cc2)c1` 4.44%

Now consider `CC1(C)N=C(N)N=C(N)N1c1ccc(Cl)cc1` and answer again. 5.04%

Quick one: `CC(=O)Nc1cc(C(=O)Nc2cccc(-c3cccc(-c4nc5cc(C(F)(F)F)ccc5[nH]4)c3)c2)ccc1C` 7.57%

Same lookup for COc1cc(CN2CCC(N3CCc4cc(NC(=O)c5cc(C)on5)ccc43)C2)ccc1F (centres undefined) , please. 2.18%

Lookup `CCOc1ccc(Nc2ccc3nonc3c2S(=O)(=O)Nc2ccc(OCC)cc2)cc1` -0.07%

Consider next the compound `COc1ccc2[nH]c(C)cc(=NN=Cc3cc(OC)c(OC)cc3OC)c2c1` in the same way. 5.42%

Okay, and `c1ccc(CN2CCC(NCc3ccc(-c4cccc(CNC5CCCC5)c4)cc3)CC2)cc1` ? 15.8%

Subsequent entry: `OCCN1CCN(Cc2ccc(-c3cccc(-c4nc5ccccc5[nH]4)c3)cc2)CC1` -1.4%

Try `COc1cc(Nc2ccnc3ccc(C(F)(F)F)cc23)cc(OC)c1OC` next. 18.2%

Another compound to check: `Cc1cccc2nc(-c3cccc(-c4cccc(CNCCCN5CCCC5=O)c4)c3)[nH]c12` -0.74%

Would you mind doing `O=C(NCCCCN1CCN(c2cccc3c2CCCC3)CC1)c1ccc(NC(=O)c2ccc(Cl)cc2)cc1` as well? 3.35%

What do you get for `O=C(O)CCSSc1cccc[n+]1[O-]` ? 29.9%

Now give it for O=C(CN1CCCCC1)Nc1ccc(Nc2nccc(NCC(O)c3ccccc3)n2)cc1 (centres undefined) too. 11.7%

One more compound: `COc1ccccc1-n1c(-c2ccc3ccccc3c2)csc1=NC(=O)c1ccccc1` 0.68%

Same lookup for `Cc1onc(-c2ccccc2)c1C(=O)Nc1nc(-c2ccccn2)nc2ccsc12` , please. 2.38%

Then `CC(=O)Nc1nc(N)c2c(ccc3c2ccn3CC(C)C)n1` ? -2.54%

====

- Target under test: Hexose transporter 1 (Plasmodium falciparum) (UniProt O97467)
- Procedure details: ST_JUDE_LEISH: Cytotoxicity at 2uM final concentration against transgenic Leishmania Mexicana promastigotes LmPfHT that are glucose transport deficient and complemented with the Plasmodium falciparum hexose transporter. Activity is measured by DNA content using SYBR green in vitro
- Assay type: functional
Measurement kind: inhibition (%)
Entry rule: numbers only, all in %.

Would you mind telling me what inhibition value was observed for `O=C(/C=C/c1ccc(Cl)c(Cl)c1)NCCCCCCN1CCN(C(=O)Nc2ccc(F)c(Cl)c2)CC1` ? 11.5

Same question for `COc1ccc2nccc(N3CCN(CCNCc4ccc5c(n4)NC(=O)CO5)CC3)c2c1` please. 8.24

Same for `O=C(Nc1ccc(F)c([N+](=O)[O-])c1)Nc1cc(C(F)(F)F)ccc1Cl` 7.68

Now the compound `COc1ccc(-c2nc(NC(=O)CS(=O)(=O)c3ccc(OC)cc3)sc2C)cc1` 2.85
